Test system: PC3 (prostate)
ASSAY METHOD TEXT: In vitro cytotoxic activity assay (MTT), PC3
Format: cell-based
CONDITION INFO: Homo sapiens, Prostate cell; PC3 (prostate) cells, exposed for 96 hours; read-out: Cytotoxicity activity IC50
pIC50: −log10 of the molar value.
VALUE TYPE: pIC50

[[record]]
compound = "O=C(O)c1cnc2c3cnccc3nc(Nc3cccc(Cl)c3)n12 [Compound 1]"
reported_measurement = 5.74


----------
Test system: MCF7 (breast)
ASSAY METHOD TEXT: In vitro cytotoxic activity assay (MTT), MCF7
Type: cell-based
CONDITION INFO: Homo sapiens; MCF7 (breast) cells, exposed for 96 hours; read-out: Cytotoxicity activity IC50
pIC50: −log10 of the molar value.
VALUE TYPE: pIC50

[[record]]
smiles_record = "O=C(O)c1cnc2c3cnccc3nc(Nc3cccc(Cl)c3)n12"
value_type = "pIC50"
reported_measurement = 5.28

